Target of assay: T1, human TGFβ3 (human, UniProt P10600 301-412)
T1 sequence: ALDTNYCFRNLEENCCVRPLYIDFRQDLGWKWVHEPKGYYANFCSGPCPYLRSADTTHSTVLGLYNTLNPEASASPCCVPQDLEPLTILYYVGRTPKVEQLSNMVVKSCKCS
Test protocol: Biacore off-rate vs wt GC1008, 50 nM
Could you please report measured kd var/kd wt for the items listed next?
The response must contain the number and no unit.

For I54H (antibody, V domains shown, GC1008 IgG4 variant) VH: QVQLVQSGAEVKKPGSSVKVSCKASGYTFSSNVISWVRQAPGQGLEWMGGVIPHVDIANYAQRFKGRVTITADESTSTTYMELSSLRSEDTAVYYCASTLGLVLDAMDYWGQGTLVTVSS VL: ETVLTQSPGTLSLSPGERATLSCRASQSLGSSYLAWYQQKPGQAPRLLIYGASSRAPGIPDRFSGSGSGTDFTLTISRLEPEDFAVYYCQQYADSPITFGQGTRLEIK , write its kd var/kd wt. 1.6

Give the measured kd var/kd wt for I54W (antibody, V domains shown, GC1008 IgG4 variant) VH: QVQLVQSGAEVKKPGSSVKVSCKASGYTFSSNVISWVRQAPGQGLEWMGGVIPWVDIANYAQRFKGRVTITADESTSTTYMELSSLRSEDTAVYYCASTLGLVLDAMDYWGQGTLVTVSS VL: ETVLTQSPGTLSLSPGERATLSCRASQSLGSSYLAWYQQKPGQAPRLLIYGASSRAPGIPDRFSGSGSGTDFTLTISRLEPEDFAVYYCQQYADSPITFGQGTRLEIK 1.7

Determine its reported kd var/kd wt: S30N (antibody, V domains shown, GC1008 IgG4 variant) VH: QVQLVQSGAEVKKPGSSVKVSCKASGYTFNSNVISWVRQAPGQGLEWMGGVIPIVDIANYAQRFKGRVTITADESTSTTYMELSSLRSEDTAVYYCASTLGLVLDAMDYWGQGTLVTVSS VL: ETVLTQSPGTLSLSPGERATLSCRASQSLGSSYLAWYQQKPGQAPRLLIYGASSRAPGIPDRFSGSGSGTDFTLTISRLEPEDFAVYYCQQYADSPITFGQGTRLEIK 1.2

# return recorded kd var/kd wt for entry S30E (antibody, V domains shown, GC1008 IgG4 variant) VH: QVQLVQSGAEVKKPGSSVKVSCKASGYTFESNVISWVRQAPGQGLEWMGGVIPIVDIANYAQRFKGRVTITADESTSTTYMELSSLRSEDTAVYYCASTLGLVLDAMDYWGQGTLVTVSS VL: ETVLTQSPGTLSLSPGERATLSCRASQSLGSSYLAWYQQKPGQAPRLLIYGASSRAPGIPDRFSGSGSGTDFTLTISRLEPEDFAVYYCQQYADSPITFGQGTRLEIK 1.1

Assign kd var/kd wt to the following record: D56L (antibody, V domains shown, GC1008 IgG4 variant) VH: QVQLVQSGAEVKKPGSSVKVSCKASGYTFSSNVISWVRQAPGQGLEWMGGVIPIVLIANYAQRFKGRVTITADESTSTTYMELSSLRSEDTAVYYCASTLGLVLDAMDYWGQGTLVTVSS VL: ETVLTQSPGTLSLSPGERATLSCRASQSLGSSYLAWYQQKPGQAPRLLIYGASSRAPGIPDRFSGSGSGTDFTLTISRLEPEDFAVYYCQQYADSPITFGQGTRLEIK 1

In one line, give reported kd var/kd wt of the entry D56H (antibody, V domains shown, GC1008 IgG4 variant) VH: QVQLVQSGAEVKKPGSSVKVSCKASGYTFSSNVISWVRQAPGQGLEWMGGVIPIVHIANYAQRFKGRVTITADESTSTTYMELSSLRSEDTAVYYCASTLGLVLDAMDYWGQGTLVTVSS VL: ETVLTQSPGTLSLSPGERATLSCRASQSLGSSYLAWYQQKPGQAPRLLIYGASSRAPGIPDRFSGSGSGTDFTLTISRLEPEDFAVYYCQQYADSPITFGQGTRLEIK . 0.7

State its kd var/kd wt for this binder: D56F (antibody, V domains shown, GC1008 IgG4 variant) VH: QVQLVQSGAEVKKPGSSVKVSCKASGYTFSSNVISWVRQAPGQGLEWMGGVIPIVFIANYAQRFKGRVTITADESTSTTYMELSSLRSEDTAVYYCASTLGLVLDAMDYWGQGTLVTVSS VL: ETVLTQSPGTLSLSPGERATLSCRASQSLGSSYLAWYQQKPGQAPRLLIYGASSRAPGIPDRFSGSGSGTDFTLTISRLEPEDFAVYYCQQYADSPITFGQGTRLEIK 1.5

Provide one value: measured kd var/kd wt of V55L (antibody, V domains shown, GC1008 IgG4 variant) VH: QVQLVQSGAEVKKPGSSVKVSCKASGYTFSSNVISWVRQAPGQGLEWMGGVIPILDIANYAQRFKGRVTITADESTSTTYMELSSLRSEDTAVYYCASTLGLVLDAMDYWGQGTLVTVSS VL: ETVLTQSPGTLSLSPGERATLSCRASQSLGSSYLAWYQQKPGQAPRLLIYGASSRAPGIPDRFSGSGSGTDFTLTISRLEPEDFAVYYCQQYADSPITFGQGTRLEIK 1.8

Dear colleague, please send me the reported kd var/kd wt for S30K (antibody, V domains shown, GC1008 IgG4 variant) VH: QVQLVQSGAEVKKPGSSVKVSCKASGYTFKSNVISWVRQAPGQGLEWMGGVIPIVDIANYAQRFKGRVTITADESTSTTYMELSSLRSEDTAVYYCASTLGLVLDAMDYWGQGTLVTVSS VL: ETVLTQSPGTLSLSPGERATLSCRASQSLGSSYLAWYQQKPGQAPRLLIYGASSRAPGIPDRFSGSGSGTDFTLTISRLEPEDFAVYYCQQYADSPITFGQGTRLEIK when you can. 1.6

Specify kd var/kd wt for I54L (antibody, V domains shown, GC1008 IgG4 variant) VH: QVQLVQSGAEVKKPGSSVKVSCKASGYTFSSNVISWVRQAPGQGLEWMGGVIPLVDIANYAQRFKGRVTITADESTSTTYMELSSLRSEDTAVYYCASTLGLVLDAMDYWGQGTLVTVSS VL: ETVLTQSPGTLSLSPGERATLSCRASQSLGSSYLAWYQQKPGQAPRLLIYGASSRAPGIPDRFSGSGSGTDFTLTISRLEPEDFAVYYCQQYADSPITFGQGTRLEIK and stop. 1.1
